# Experimental system: RAC-alpha serine/threonine-protein kinase (Homo sapiens)
# Test method notes: Inhibition of human Protein kinase B alpha at 30 uM
Readout: inhibition (%)

Worked set:
>  <Compound smiles>
Fc1ccc(Sc2[nH]cnc3nccc2-3)cc1

>  <Assay result>
0

$$$$
>  <Compound smiles>
c1ccc(Sc2ncnc3[nH]cnc23)cc1

>  <Assay result>
0

$$$$

a = c1ccc(Oc2ncnc3[nH]cnc23)cc1
b = Cn1cnc2c(-c3ccccc3)ncnc21
// query Please indicate which item has the smaller measured inhibition: a versus b Answer by stating the label of the chosen item.
// result a
(a: 0%, b: 15%)

====

# Experimental system: Tyrosine-protein kinase Lck (Homo sapiens) (UniProt P06239)
# Sequence (P06239 2-509 limits assumed): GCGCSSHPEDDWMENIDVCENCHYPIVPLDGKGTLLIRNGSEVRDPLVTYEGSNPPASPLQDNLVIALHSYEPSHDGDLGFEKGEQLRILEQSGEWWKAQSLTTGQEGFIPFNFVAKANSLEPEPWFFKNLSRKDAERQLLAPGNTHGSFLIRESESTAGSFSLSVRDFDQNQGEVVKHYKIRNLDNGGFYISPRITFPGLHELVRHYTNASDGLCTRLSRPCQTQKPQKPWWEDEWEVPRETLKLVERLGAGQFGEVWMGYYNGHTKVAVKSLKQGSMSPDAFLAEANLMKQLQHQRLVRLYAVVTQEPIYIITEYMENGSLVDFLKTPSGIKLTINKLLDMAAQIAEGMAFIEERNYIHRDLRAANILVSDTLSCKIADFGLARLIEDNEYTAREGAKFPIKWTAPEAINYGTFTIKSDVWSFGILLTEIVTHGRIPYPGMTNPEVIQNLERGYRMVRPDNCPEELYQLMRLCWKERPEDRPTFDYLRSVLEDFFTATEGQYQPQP
# Test method notes: Inhibition of human lymphocyte protein tyrosine kinase Lck at 30 uM
Readout: inhibition (%)

Worked set:
>  <Compound smiles>
Fc1ccc(Sc2[nH]cnc3nccc2-3)cc1

>  <inhibition, %>
52

$$$$
>  <Compound smiles>
c1ccc(Nc2ncnc3[nH]cnc23)cc1

>  <inhibition, %>
39

$$$$
>  <Compound smiles>
Fc1ccc(Cn2cnc3c(Sc4ccccc4)ncnc32)cc1

>  <inhibition, %>
12

$$$$
>  <Compound smiles>
Nc1ncnc2ncn(Cc3ccc(F)cc3)c12

>  <inhibition, %>
0

$$$$
>  <Compound smiles>
CSc1ccc(-c2nc3c(Sc4ccccc4)ncnc3n2C)cc1

>  <inhibition, %>
0

$$$$

A = Fc1ccc(CSc2[nH]cnc3ncnc2-3)cc1
B = Cn1c(-c2ccccc2)nc2c(Sc3ccccc3)ncnc21
C = Clc1ncnc2c1ncn2Cc1ccccc1
D = c1ccc(-[n+]2c[nH]c3ncncc32)cc1
// query List these items ordered by inhibition, big to small. Response format: the labels, sorted as the prompt asks.
// result A, B, D, C
(A: 16%, B: 5%, D: 2%, C: 0%)
